Tested on: collagenase
Assay: Collagenase inhibition assay
Format: biochemical
Details: 100 µM
Entry flag: y if collagenase inhibition reaches 40%; n if it does not.

Look over these answered cases.
>  <Molecule>
C/C(=C\COC(=O)c1ccco1)CCC[C@H](C)CCC[C@H](C)CCCC(C)C [Compound 1h, Phytyl 2-furoate]

>  <Label class>
n

$$$$
>  <Molecule>
C/C(=C\COC(=O)c1cccs1)CCC[C@H](C)CCC[C@H](C)CCCC(C)C [Compound 1i, Phytyl 2-thiophenecarbonoate]

>  <Label class>
y

$$$$
>  <Molecule>
CC(=CCO)CCCC(C)CCCC(C)CCCC(C)C (centres unmarked) [Compound 1, 3,7,11,15-tetramethylhexadec-2-en-1-ol, reference compound]

>  <Label class>
n

$$$$

## Task Could you please find out whether COc1ccc(C(=O)OC/C=C(\C)CCC[C@H](C)CCC[C@H](C)CCCC(C)C)cc1 [Compound 1d, Phytyl 4-methoxybenzoate] has collagenase inhibition that meets 40% or exceeds it?
## Result y
